B1: WW domain-containing transcription regulator protein 1, residues 116 to 162; numbered along this chain, Q9GZV5 (parent)
chain: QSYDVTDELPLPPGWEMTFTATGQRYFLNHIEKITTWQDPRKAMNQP

# Variants of: B1
# Assay Method Text: abundance fitness (aPCA) (normalised: wild type 0, dead -1); higher = more abundant; growth selection in yeast, the domain comes from the species named
# Condition Set: Homo sapiens
Property Label: abundance fitness

[
  {
    "Residue Change": "E8Y",
    "Property Label": "abundance fitness",
    "Reported Result": -0.248
  },
  {
    "Residue Change": "D4E",
    "Property Label": "abundance fitness",
    "Reported Result": -0.072
  },
  {
    "Residue Change": "K33N",
    "Property Label": "abundance fitness",
    "Reported Result": -0.041
  },
  {
    "Residue Change": "Q24H",
    "Property Label": "abundance fitness",
    "Reported Result": -0.552
  },
  {
    "Residue Change": "A21I",
    "Property Label": "abundance fitness",
    "Reported Result": -0.1
  },
  {
    "Residue Change": "D39M",
    "Property Label": "abundance fitness",
    "Reported Result": -0.789
  },
  {
    "Residue Change": "P12F",
    "Property Label": "abundance fitness",
    "Reported Result": -0.997
  },
  {
    "Residue Change": "E16N",
    "Property Label": "abundance fitness",
    "Reported Result": -0.58
  },
  {
    "Residue Change": "P10M",
    "Property Label": "abundance fitness",
    "Reported Result": -0.212
  },
  {
    "Residue Change": "P13E",
    "Property Label": "abundance fitness",
    "Reported Result": -0.043
  },
  {
    "Residue Change": "W15C",
    "Property Label": "abundance fitness",
    "Reported Result": -0.627
  }
]
